System: ACHN renal
EXPERIMENT NOTES: NCI tumour cell line growth inhibition, 48 h; in the data active means GI50 below about 0.43 µM; inactive means the rest
Field 'call' accepts active, inactive

Please let me know the test result on file for Cn1c(COC(=O)N2CCCCC2)nc2c(N3CCOCC3)nc(-c3ccccc3)nc21 .
active

Test call for this compound, please: CC(=O)O[C@H]1CC[C@]2(C)[C@H]3CC[C@@H]4[C@H]5[C@H](C(C)C)CC[C@]5(C(=O)OCC(CO)(CO)N=C(N)N)CC[C@@]4(C)[C@]3(C)CC[C@H]2C1(C)C
inactive

# fetch the recorded call for CC1(C)N=C(N)N=C(N)N1c1ccc(F)c(C(F)(F)F)c1 here
inactive

Dear colleague, could you share the recorded outcome for CS(=O)(=O)CCNCc1ccc(-c2ccc3ncnc(Nc4ccc(OCc5cccc(C(F)(F)F)c5)cc4)c3c2)o1 when you have a moment?
inactive

Identify the outcome logged in this assay for the compound shown: COC(CCP(=O)(c1ccccc1)c1ccccc1)(C(=O)c1ccccc1)c1ccccc1 (configuration not stated)
inactive

Short answer needed: outcome of this test for C#C[C@]1(O)CC[C@H]2[C@@H]3CC=C4c5sc(N=C(N)N)nc5CC[C@]4(C)[C@H]3CC[C@@]21C ?
inactive

State the result this test recorded for CC(=O)/C=C/C1=C(c2cc3ccccc3s2)c2ccccc2CC1 .
inactive

Called result for O=C1c2ccccc2C(=O)N1c1ccc(S(=O)(=O)Nc2ncccn2)cc1
inactive

Kindly provide the recorded test outcome for the following compound: CCC(Sc1nnc2c3ccccc3n(CC)c2n1)C(=O)Nc1ccccc1OC (configuration not stated)
inactive

Returns: the outcome recorded for Nc1cc(-c2ccccc2)ccc1O in this assay.
inactive

What did the test return for COc1ccc2[nH]cc(-c3nc(-c4cn(C)c5ccncc45)cs3)c2c1 ?
inactive

Assay result, entry CCC[CH2][Sn]([CH2]CCC)([O]C(=O)c1cccc(F)c1)[O]C(=O)c1cccc(F)c1 — outcome?
inactive

###

Please respond with reported TGI for every item in the list.
System: HCT-116 colon
EXPERIMENT NOTES: NCI tumour cell line growth inhibition, 48 h

Tell me the measured TGI of COc1ccc2c(c1)CC[C@@H]1[C@@H]2CC[C@@]2(C)[C@H]1CC1(CCCCC1)[C@@H]2O , please.
26.4 µM

Fill blank: measured TGI of the compound COC(=O)CC1(CNC(=O)OCc2ccccc2)OCCO1 is ____.
> 100 µM

Look up TGI: O=C1c2ccccc2-c2nc(-c3cccnc3)cc3c2c1nc1ccccc13
> 100 µM

Looking for the measured TGI of COc1ccc(C(O)CNC(=O)c2ccccc2)cc1 (centres undefined) , can you help?
> 100 µM

Looking for the measured TGI of [Cu+2].[O-]c1ccc2ccccc2c1N=Nc1ccccc1.[O-]c1ccc2ccccc2c1N=Nc1ccccc1 , can you help?
> 100 µM

Query: TGI; subject: COc1cccc(/C=N\Nc2ccc([N+](=O)[O-])cn2)c1O
15.2 µM

Name the recorded TGI for O=C(c1cc(Cl)cc(Cl)c1)N(C(=S)OC12CC3CC(CC(C3)C1)C2)c1ccccc1 .
> 100 µM

Look at this compound and give its reported TGI. Cc1cc2[nH]c3c(C#N)c(-c4ccccc4)c(N=Nc4cccc(C(F)(F)F)c4)c(=O)n3c2cc1C
> 100 µM

Any idea what its TGI is? The compound is O=C1C=C(Nc2ccccc2C(=O)CC(=O)C(=O)Nc2cccc(C(F)(F)F)c2)c2ccccc2C1=O
74.3 µM

Which TGI reading was recorded for the compound COC(=O)C1=Nc2c(C)nn(-c3ccccc3)c2N=C(c2ccc(C)cc2)C1 ?
> 10 µM

Find the recorded TGI belonging to CC(C)C(=O)N[C@@H](C)C(=O)N(Cc1ccc2ccccc2c1)N=O and report it.
> 100 µM

Can you look up the measured TGI of CC1CCCC2=C1C(c1ccc(Cl)cc1)n1c(s/c(=C\c3ccc(Cl)cc3)c1=O)=N2 (centres undefined) for me?
> 100 µM

Request the reported TGI associated with Brc1ccc([I+]c2ccc(Br)cc2)cc1
11.5 µM

I have this compound here, COc1cc(OC)c2c(c1OC)OCC(Cc1ccc(O)cc1)C2=O (centres undefined) , and I need its recorded TGI.
> 25 µM

# lookup: TGI of COc1ccc2c3c1OC1C(=O)C=CC4(O)C(C2)NCC[C@@]314 (some centres undefined)
6.32 µM

Which value of TGI has been reported for COc1cc(-c2[nH]ccc2Cl)oc1C1=C2N=C3C=C2C(C(C)C)C1CCCCCCCC3 (centres undefined) in the records?
0.992 µM

Request the reported TGI associated with O=Cc1ccc(-c2ccc(-c3ccc(C=O)s3)o2)s1
> 100 µM

Recorded TGI of CC(=O)Nc1ccc(CNc2cc(=O)[nH]c(=O)[nH]2)cc1 , please.
> 100 µM

Look up TGI: C1COC(NC(C2CC2)C2CC2)=N1
> 100 µM

For Cc1c(C(=O)/C=C/c2ccc(Cl)cc2)[n+](=O)c2ccccc2n1[O-] , what is its reported TGI?
18.5 µM

Need TGI of O=C1c2ccccc2CC12Cc1cc3c(cc1C2=O)CCC3 (centres undefined) , thanks.
> 100 µM

Query: TGI; subject: ClCCN(CCCl)c1ccc(-n2cnc3c(Cl)ncnc32)cc1
3.33 µM

Fill in: TGI of O=C(Nc1cc(C(F)(F)F)ccc1F)Nc1n[nH]c2ccccc12 is ___
> 100 µM

Query (compound): CCCCCCCCCCCCCCCC(=O)OCC(O)C1OC(=O)C(O)=C1O (centres undefined) ; field requested: TGI
36.7 µM

Can you look up the measured TGI of C=C1CC(CCCl)(c2ccccc2)OC1=O (centres undefined) for me?
> 53.9 µM

// TGI lookup, key: Cc1ccc(NC(=O)/C(CC(=O)c2c[n+](=O)c3ccccc3n2O)=N\NC(=O)C[n+]2ccccc2)cc1
> 100 µM

Which TGI reading was recorded for the compound CN(C)CCn1c2ccccc2c2nc3cc4ccccc4cc3nc21 ?
16.9 µM

For the compound C=CC1CC12C(=O)C1OC2(C)C2C(=O)c3c(ccc4c3ccc3ccccc34)C(=O)C12 (centres undefined) , what TGI is on record?
> 100 µM

Fill blank: measured TGI of the compound COc1ccc2c3c1C(=O)CCC3CO2 (centres undefined) is ____.
> 100 µM

Which TGI value belongs to CCOc1ccc2c(c1)/C(=C(\C(Cl)=C(Cl)Cl)[N+](=O)[O-])N2 ?
> 100 µM

Fill blank: measured TGI of the compound COc1cc(CSc2nc3ccc(C)cc3c(=O)n2Cc2ccccc2)cc(OC)c1OC is ____.
48.9 µM

Fill blank: measured TGI of the compound Cc1ccc(C(=O)C(C)N)cc1 (centres undefined) is ____.
> 100 µM

Given Cc1cc(NS(=O)(=O)c2ccc(NC(=O)c3cccc4c(N)c5ccccc5nc34)cc2)no1 , state its recorded TGI.
27.6 µM

# input compound: COc1ccc(-c2n[nH]nc2-c2csc3ccccc23)cc1OC ; wanted: its TGI
15.3 µM

For CCc1n[nH]c(=O)n1N1C(=O)C2CC=CCC2C1=O (centres undefined) , what is its reported TGI?
> 100 µM

Looking for the measured TGI of CC(C)(C)c1ccc(CN2CCN(C(c3ccccc3)c3ccc(Cl)cc3)CC2)cc1 (centres undefined) , can you help?
> 100 µM

I am curious: what TGI value has been reported for O=C1C2C=CC1C1C(=O)OC(=O)C21 (centres undefined) ?
> 100 µM

Any idea what its TGI is? The compound is c1ccc(C2SCC3=Nc4ccccc4CN32)cc1 (centres undefined)
51.9 µM

Which TGI is listed for CC1(O)CC2C(CC1SCCO)C2(C)C (centres undefined) ?
> 100 µM
